assayNotes: Mouse blood levels after oral administration
Type: in vivo
measurementSetup: mouse, blood, po, 100 mg/kg, Table II; oral 100 mg./kg.; 0.5 hr; Tween-carboxymethylcellulose; 8 mice; read-out: Blood Level
measureName: concentration at 0.5 h (ng/mL)
Numbers only, in ng/mL.

For each of the compounds below, state concentration at 0.5 h.
1. O=C(O)C1=C(CSc2cnn[nH]2)CS[C@@H]2[C@H](N3C(=O)[C@@H](c4ccc(O)cc4)NC3c3ccc(S(=O)(=O)O)o3)C(=O)N12 (some centres unmarked)
2. N[C@@H](C(=O)N[C@@H]1C(=O)N2C(C(=O)O)=C(CSc3cnn[nH]3)CS[C@H]12)c1ccc(O)cc1 [BL-S640, reference compound]

Reply:
1: 45000; 2: 50500

====

assayNotes: Mouse blood levels after intramuscular administration
Type: in vivo
measurementSetup: mouse, blood, im, 10 mg/kg, Example 2; IM 10 mg./kg.; 1.5 hr; 0.01% phosphate buffer; 16 or 32 mice; read-out: Blood Levels
Exercise: for every item that follows, state its recorded concentration at 1.5 h.
Answers are plain numbers, in ng/mL.

O=C(O)C1=C(CSc2cnn[nH]2)CS[C@@H]2[C@H](N3C(=O)[C@@H](c4ccc(O)cc4)NC3c3ccc(S(=O)(=O)O)o3)C(=O)N12 (some centres unmarked)	8200

Now turn to the next compound.
The compound listed as O=C(O)COc1ccccc1C1N[C@H](c2ccc(O)cc2)C(=O)N1[C@@H]1C(=O)N2C(C(=O)O)=C(CSc3cnn[nH]3)CS[C@H]12 (some centres unmarked) has a reported concentration at 1.5 h of 7000

====

Tested on: Ser. marcescens A20019
assayNotes: Antibiotic activity in nutrient broth (MIC)
Type: cell-based
measurementSetup: Serratia marcescens, A20019, inoculum 10^-4; derivatives adjusted for BL-S640 content
Text: Antibiotic Activity In Nutrient Broth ** Dilution of overnight broth culture. Antibiotic Spectrum Nutrient Broth Antibiotic Spectrum in Nutrient Broth
measureName: MIC

Below: 2 compounds and their reported MIC.
O=C(O)COc1ccccc1C1N[C@H](c2ccc(O)cc2)C(=O)N1[C@@H]1C(=O)N2C(C(=O)O)=C(CSc3cnn[nH]3)CS[C@H]12 (some centres unmarked) [BL-S1048]	> 125 µg/mL
N[C@@H](C(=O)N[C@@H]1C(=O)N2C(C(=O)O)=C(CSc3cnn[nH]3)CS[C@H]12)c1ccc(O)cc1 [BL-S640, reference compound]	> 125 µg/mL

For each of the compounds below, state MIC.
1. O=C(O)C1=C(CSc2cnn[nH]2)CS[C@@H]2[C@H](N3C(=O)[C@@H](c4ccc(O)cc4)NC3c3ccc(S(=O)(=O)O)o3)C(=O)N12 (some centres unmarked) [BL-S1027]
2. CC(=O)OCC1=C(C(=O)O)N2C(=O)[C@@H](NC(=O)Cc3cccs3)[C@H]2SC1 [Cephalothin, reference compound]
3. O=C(O)C1=C(CSc2cnn[nH]2)CS[C@@H]2[C@H](N3C(=O)[C@@H](c4ccc(O)cc4)NC3c3ccccc3S(=O)(=O)O)C(=O)N12 (some centres unmarked) [BL-S1055]

Reply:
1: > 125 µg/mL; 2: > 125 µg/mL; 3: 125 µg/mL

====

Exercise: for every item that follows, state its recorded concentration at 0.5 h.
assayNotes: Mouse blood levels after intramuscular administration
Format: in vivo
measurementSetup: mouse, blood, im, 10 mg/kg, Example 2; IM 10 mg./kg.; 0.5 hr; 0.01% phosphate buffer; 16 or 32 mice; read-out: Blood Levels
Description: Mouse Blood Levels After Intramuscular Administration of 10 mg./kg. Body Weight The compounds were dissolved in 0.01% phosphate buffer. Mouse Blood Levels After IM Administration of 10 mg./kg. Body Weight The compounds were prepared in 0.01% phosphate The compounds were prepared in 0.01% phosphate buffer.
Give bare numbers, in ng/mL.

O=C(O)COc1ccccc1C1N[C@H](c2ccc(O)cc2)C(=O)N1[C@@H]1C(=O)N2C(C(=O)O)=C(CSc3cnn[nH]3)CS[C@H]12 (some centres unmarked)	14100

Now turn to the next compound.
The compound listed as O=C(O)C1=C(CSc2cnn[nH]2)CS[C@@H]2[C@H](N3C(=O)[C@@H](c4ccc(O)cc4)NC3c3ccc(S(=O)(=O)O)o3)C(=O)N12 (some centres unmarked) has a reported concentration at 0.5 h of 15100

====

assayNotes: Urinary recovery after IM administration to rats
Assay type: in vivo
measurementSetup: rat, urine, 50 mg/kg, IM 50 mg./kg., 0-6 hr, read-out: Urinary Recovery, Percentage of Administered Dose Recovered
measureName: dose excreted at 6 h (%)
One number for each entry, in %.

N[C@@H](C(=O)N[C@@H]1C(=O)N2C(C(=O)O)=C(CSc3cnn[nH]3)CS[C@H]12)c1ccc(O)cc1 [BL-S640, reference compound]	44.2

For each of the compounds below, state dose excreted at 6 h.
1. O=C(O)COc1ccccc1C1N[C@H](c2ccc(O)cc2)C(=O)N1[C@@H]1C(=O)N2C(C(=O)O)=C(CSc3cnn[nH]3)CS[C@H]12 (stereo partly shown)
2. O=C(O)C1=C(CSc2cnn[nH]2)CS[C@@H]2[C@H](N3C(=O)[C@@H](c4ccc(O)cc4)NC3c3ccccc3S(=O)(=O)O)C(=O)N12 (stereo partly shown)
3. O=C(O)C1=C(CSc2cnn[nH]2)CS[C@@H]2[C@H](N3C(=O)[C@@H](c4ccc(O)cc4)NC3c3ccc(S(=O)(=O)O)o3)C(=O)N12 (stereo partly shown)

Reply:
1. 32.3
2. 36.6
3. 39.6

====

assayNotes: Stability of solids
Format: physicochemical
measurementSetup: solid; 100° C., 24 hours; read-out: Loss of bioactivity on storage at elevated temperatures
measureName: degraded at 24 h

The compound listed as `N[C@@H](C(=O)N[C@@H]1C(=O)N2C(C(=O)O)=C(CSc3c[nH]nn3)CS[C@H]12)c1ccc(O)cc1` has a reported degraded at 24 h of < 6%
